Reference source for all entries: ChEMBL document CHEMBL1156854

Test: AUC in po dosed rat
Assay type: ADME, organism-based
Details: plasma
measurementType: AUC (ng·h/mL)
Numbers only, in ng·h/mL.

**Query** Suppose we examine the compound `C[C@@H]1CN(C(c2ccccc2)c2ccccc2)[C@@H](C)CN1C(=O)c1cc2c(C(=O)C(=O)N(C)C)cn(C)c2cc1Cl` ; what AUC value has been reported?
**Result** 1270

###

Experiment: Clearance in po dosed rat
Format: ADME, organism-based
Details: in vivo
measurementType: CL/F (mL/min/kg)
Answers are plain numbers, in mL/min/kg.

**Query** # lookup: CL/F of `C[C@@H]1CN(C(c2ccccc2)c2ccccc2)[C@@H](C)CN1C(=O)c1cc2c(C(=O)C(=O)N(C)C)cn(C)c2cc1Cl`
**Result** 20
